Target: mpCAR (Mycolicibacterium phlei, UniProt A0A5N5VEC4)
Construct: gene car; expressed in E. coli BL21(DE3) with B. subtilis Sfp (phosphopantetheinylated); around 130 kDa
Assay: NADPH oxidation at […] nm, product inhibition kinetics
Type: biochemical
Details: competitive with ATP; pH 7.5, 30 °C, 10 mM MgCl2
ATTRIBUTE_MEASURED: pKi
When answering, recall that pKi equals minus log10 of the concentration in mol/L, and write that number alone.

Return reported pKi; argument: Nc1ncnc2c1ncn2[C@@H]1O[C@H](COP(=O)(O)O)[C@@H](O)[C@H]1O
2.09

###

Biological target: mpCAR (Mycolicibacterium phlei)
Construct: gene car; expressed in E. coli BL21(DE3) with B. subtilis Sfp (phosphopantetheinylated); around 130 kDa
Assay: NADPH oxidation at […] nm, product inhibition kinetics
Assay type: biochemical
Settings: competitive with NADPH; pH 7.5, 30 °C, 10 mM MgCl2
ATTRIBUTE_MEASURED: Ki (µM)
Write down the numeric answer in µM and omit the unit.

Return reported Ki; argument: NC(=O)c1ccc[n+]([C@@H]2O[C@H](COP(=O)(O)OP(=O)(O)OC[C@H]3O[C@@H](n4cnc5c(N)ncnc54)[C@H](OP(=O)(O)O)[C@@H]3O)[C@@H](O)[C@H]2O)c1
143
